subject-of-test: human CB2 receptor (Homo sapiens (Human), UniProt P34972)
Sequence (P34972 whole entry): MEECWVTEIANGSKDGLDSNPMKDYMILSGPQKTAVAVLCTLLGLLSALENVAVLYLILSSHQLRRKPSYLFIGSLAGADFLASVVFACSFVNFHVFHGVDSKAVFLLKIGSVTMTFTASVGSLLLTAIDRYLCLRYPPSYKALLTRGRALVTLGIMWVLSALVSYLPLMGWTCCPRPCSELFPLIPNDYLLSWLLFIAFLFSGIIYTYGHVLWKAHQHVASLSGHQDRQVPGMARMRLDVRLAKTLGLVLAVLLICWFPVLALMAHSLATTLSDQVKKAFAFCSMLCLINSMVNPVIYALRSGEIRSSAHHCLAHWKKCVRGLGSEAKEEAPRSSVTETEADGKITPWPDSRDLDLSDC
experiment-description: CB2 receptor cAMP assay (DiscoverX HitHunter cAMP XS+)
Type: cell-based
pIC50: −log10 of the molar value.
assay-readout: pIC50

1. COc1ccc(-c2cnc3c(c2)c(O)c(C(=O)NC24CC(C2)C4)c(=O)n3CCN2CCOCC2)cc1; 7.21
2. N#Cc1ccc(-c2cnc3c(c2)cc(C(=O)NC24CC(C2)C4)c(=O)n3CCN2CCOCC2)cc1; 7.85
3. CC1CCC(NC(=O)c2c(O)c3cc(-c4ccc(F)cc4)cnc3n(CCN3CCOCC3)c2=O)CC1 (stereo not drawn); 7.15
4. COc1ccc(-c2cnc3c(c2)cc(C(=O)NC2CC4(CCC4)C2)c(=O)n3CCN2CCOCC2)cc1; 8.30
5. O=C(NC1CC2(CCC2)C1)c1c(O)c2cc(-c3ccc(Cl)cc3)cnc2n(CCN2CCOCC2)c1=O; 7.09
6. C[C@@H](NC(=O)c1cc2cc(C3COC3)cnc2n(Cc2ccc(F)cc2)c1=O)c1ccc(C#N)cc1; 7.68
7. COc1ccc(-c2cnc3c(c2)c(O)c(C(=O)NC2CCC(C)CC2)c(=O)n3CCN2CCOCC2)cc1 (stereo not drawn); 8.15
8. CC1CCC(NC(=O)c2cc3cc(-c4ccc(C#N)cn4)cnc3n(CCN3CCOCC3)c2=O)CC1 (stereo not drawn); 8.10
9. COc1ccc(-c2cnc3c(c2)cc(C(=O)NCc2ccc(F)cc2)c(=O)n3CCN2CCOCC2)cc1; 7.55
10. CC(NC(=O)c1cc2cc(-c3ccc(C#N)cc3)cnc2n(CCN2CCOCC2)c1=O)c1ccc(F)cc1 (stereo not drawn); 7.82
11. C[C@@H](NC(=O)c1cc2cc(C3CC3)cnc2n(Cc2ccc(F)cc2)c1=O)c1ccc(F)cc1; 9.10
12. O=C(NC1CC2(CCC2)C1)c1cc2cc(C3COC3)cnc2n(Cc2ccc(F)cc2)c1=O; 8.52

Taken from patent US11564928B1.
